Where do the numbers come from? From PubChem BioAssay AID1745844.

# Tested on: rodent lifetime carcinogenesis bioassay, tumor incidence TD50
# test: carcinogenic potency in animals, long-term in vivo studies, CPDB compilation (AID 1745844)
# conditionLabel: mouse; strain B6C3F1; males; inhaled; site: all sites; lesion: histiocytic sarcoma; dosed 26 weeks; study length 104 weeks
attributeMeasured: TD50

INPUT: Please look up its TD50: `C=CC=C`
OUTPUT: 396 mg/kg/day

====

# Test system: rodent lifetime carcinogenesis bioassay, tumor incidence TD50
# test: carcinogenic potency in animals, long-term in vivo studies, CPDB compilation (AID 1745844)
# conditionLabel: rat; strain Long-Evans BLU:(LE); both sexes; in drinking water; site: any site (literature study); lesion: one or several types; types not named; dosed 182 weeks; study length 182 weeks
Calls of active or inactive are those of the source. No rule for the calls is given here.
attributeMeasured: TD50

INPUT: Observed TD50 on rodent lifetime carcinogenesis bioassay, tumor incidence TD50 for `CC(=O)[O-].CC(=O)[O-].CC(=O)[O-].[Cr+3]` , please.
OUTPUT: 1.61 mg/kg/day (inactive)

====

# System: rodent lifetime carcinogenesis bioassay, tumor incidence TD50
# test: carcinogenic potency in animals, long-term in vivo studies, CPDB compilation (AID 1745844)
# conditionLabel: rat; strain Fischer 344; females; in drinking water; site: liver; lesion: hyperplastic nodule; dosed 104 weeks; study length 129 weeks
attributeMeasured: TD50 (mg/kg/day)
Value expressed in mg/kg/day; do not type the unit.

INPUT: Requested field: TD50. Item: `C=C/C=N/O`
OUTPUT: 43.8

====

# System: rodent lifetime carcinogenesis bioassay, tumor incidence TD50
# test: carcinogenic potency in animals, long-term in vivo studies, CPDB compilation (AID 1745844)
# conditionLabel: rat; strain Fischer 344; females; in drinking water; site: central nervous system; lesion: astrocytoma; dosed 104 weeks; study length 104 weeks
attributeMeasured: TD50 (mg/kg/day)
Numbers only here, please. The scale is mg/kg/day.

INPUT: Query: TD50; subject: `C=CC(N)=O`
OUTPUT: 19.5

====

# Test system: rodent lifetime carcinogenesis bioassay, tumor incidence TD50
# test: carcinogenic potency in animals, long-term in vivo studies, CPDB compilation (AID 1745844)
# conditionLabel: rat; strain F344/DuCrj; males; in feed; site: liver; lesion: hepatocellular carcinoma; dosed 104 weeks; study length 108 weeks
Activity calls are given as the source filed them. No rule for the calls is given here.
attributeMeasured: TD50

INPUT: // lookup TD50 | system=rodent lifetime carcinogenesis bioassay, tumor incidence TD50 | key= `C=C1C[C@@]23CC[C@H]4[C@@](C)(CCC[C@@]4(C)C(=O)O[C@@H]4O[C@H](CO)[C@@H](O)[C@H](O)[C@H]4O)[C@@H]2CC[C@]1(O[C@@H]1O[C@H](CO)[C@@H](O)[C@H](O)[C@H]1O[C@@H]1O[C@H](CO)[C@@H](O)[C@H](O)[C@H]1O)C3`
OUTPUT: 101000 mg/kg/day (inactive)

====

# Test system: rodent lifetime carcinogenesis bioassay, tumor incidence TD50
# test: carcinogenic potency in animals, long-term in vivo studies, CPDB compilation (AID 1745844)
# conditionLabel: mouse; strain B6C3F1; males; oral dosing; site: lung; lesion: several types; types named in the paper; dosed 76 weeks; study length 76 weeks
attributeMeasured: TD50 (mg/kg/day)
State the answer as a number, implicitly in mg/kg/day.

INPUT: Requested field: TD50. Item: `CCN(CC)C(=S)S[Te](SC(=S)N(CC)CC)(SC(=S)N(CC)CC)SC(=S)N(CC)CC`
OUTPUT: 52.1
